test: CEETOX_H295R_CORTISOL: CeeTox H295R High-throughput Steroidogenesis Assay for Cortisol (AID 2283438); conditions: actives raise or lower the signal;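 further: cortisol secreted into medium quantified by LC-MS/MS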
Activity calls are given as the source filed them. How the source made its calls: active means hit-call score of the fitted dose curve at least 0.9, where 1 is the maximum; inactive means score below 0.9.
Pick from active, inactive when you respond.

Asked: Tell me the assay call for `CCCCCCCCCCCCC[N+](C)(C)Cc1ccccc1` please.
Given back: inactive

Asked: Please share the test call associated with `N#Cc1ccccc1O` .
Given back: inactive

Asked: What call does the record list for OCCC(O)CO (stereo not drawn) ?
Given back: inactive

Asked: Recorded test outcome, item `O=C1C=CC(=O)N1c1ccccc1`
Given back: inactive

Asked: Called result for `O=C(c1ccccc1)c1ccc(Cl)cc1`
Given back: inactive

Asked: How was `CCN(CC)c1ccc(C=O)cc1` classified in this test?
Given back: inactive

Asked: I'd appreciate the recorded outcome for `CSc1ccc(O)cc1C` from this test.
Given back: inactive

Asked: Answer briefly: the call reported for `CC1CCCCC1` in this assay.
Given back: inactive

Asked: What call does the record list for `C[C@]12CC[C@H]3C(=CCc4cc(O)ccc43)[C@@H]1CCC2=O` ?
Given back: active

Asked: Assay result, entry `CCOCOCC` — outcome?
Given back: inactive

Asked: What did the test return for `CN1CN(C)CN(C)C1` ?
Given back: inactive

Asked: Hi, do you know how `CCCCCCCCCc1ccc(OCCO)cc1` came out in this test?
Given back: inactive

Asked: Tell me the recorded outcome of this test for `Nc1cccnc1N` .
Given back: inactive

====

target: Estrogen receptor (Homo sapiens) + Estrogen receptor beta (Homo sapiens) (UniProt P03372+Q92731); experiment: OT_ER_ERaERb_0480: Odyssey Thera (OT) 8-hour HEK293T Protein-Complementation Assay for Estrogen Receptor-alpha/-beta Heterodimer (AID 2283352)
Sequence (P03372 whole entry, looked up): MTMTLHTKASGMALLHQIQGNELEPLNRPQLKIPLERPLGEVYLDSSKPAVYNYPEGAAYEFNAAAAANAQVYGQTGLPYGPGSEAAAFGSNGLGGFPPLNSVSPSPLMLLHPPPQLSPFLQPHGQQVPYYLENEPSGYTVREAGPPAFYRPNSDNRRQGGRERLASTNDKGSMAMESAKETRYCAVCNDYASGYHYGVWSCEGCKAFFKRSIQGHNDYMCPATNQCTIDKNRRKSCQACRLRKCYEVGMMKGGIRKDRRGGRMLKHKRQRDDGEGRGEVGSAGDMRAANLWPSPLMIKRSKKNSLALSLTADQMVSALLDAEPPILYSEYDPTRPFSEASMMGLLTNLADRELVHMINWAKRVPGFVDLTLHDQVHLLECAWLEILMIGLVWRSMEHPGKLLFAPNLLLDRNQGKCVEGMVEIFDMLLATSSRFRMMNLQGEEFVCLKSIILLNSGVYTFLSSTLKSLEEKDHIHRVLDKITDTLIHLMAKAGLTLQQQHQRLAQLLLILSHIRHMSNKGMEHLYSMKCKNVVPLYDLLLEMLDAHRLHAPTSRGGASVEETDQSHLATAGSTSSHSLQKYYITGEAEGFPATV
Sequence (Q92731 whole entry, looked up): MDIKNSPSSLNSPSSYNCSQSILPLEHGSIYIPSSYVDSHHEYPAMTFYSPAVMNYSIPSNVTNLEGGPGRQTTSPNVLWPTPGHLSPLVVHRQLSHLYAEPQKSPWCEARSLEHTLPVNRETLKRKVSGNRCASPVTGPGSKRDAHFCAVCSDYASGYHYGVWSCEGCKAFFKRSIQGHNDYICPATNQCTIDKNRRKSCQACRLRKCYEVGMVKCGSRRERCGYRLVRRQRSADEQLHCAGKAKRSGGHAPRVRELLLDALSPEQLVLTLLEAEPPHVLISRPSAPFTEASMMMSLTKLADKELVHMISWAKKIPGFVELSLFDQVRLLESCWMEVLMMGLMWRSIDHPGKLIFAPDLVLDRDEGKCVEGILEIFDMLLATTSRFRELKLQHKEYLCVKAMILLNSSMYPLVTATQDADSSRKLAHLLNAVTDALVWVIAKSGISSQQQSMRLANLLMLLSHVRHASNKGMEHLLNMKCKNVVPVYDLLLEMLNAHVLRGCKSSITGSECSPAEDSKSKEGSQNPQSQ
Inconclusive results are not listed. Activity calls are given as the source filed them. The calls were made as follows: active = hit-call score of the fitted dose curve at least 0.9, where 1 is the maximum; inconclusive = response in the unintended direction; inactive = score below 0.9.
Pick one and only one: True for active, False for inactive

Asked: Please indicate how the test categorized `CCOC(OCC)OCC` .
Given back: False

Asked: Given `CCN=c1cc2oc3cc(NCC)c(C)cc3c(-c3ccccc3C(=O)OCC)c-2cc1C` , state the outcome it received in this test.
Given back: True

Asked: How was `CCCCCCCCCc1ccc(OCCO)cc1` classified in this test?
Given back: True

Asked: Entry `F[Si-2](F)(F)(F)(F)F` : call = ?
Given back: False

Asked: Given `Cc1ccc(O)c(-n2nc3ccccc3n2)c1` , state the outcome it received in this test.
Given back: False

Asked: I'd appreciate the recorded outcome for OCC1CCCO1 (stereo not drawn) from this test.
Given back: False

Asked: Tell me the assay call for CCCCCCCC/C=C\CCCCCCCC(=O)OCC(O)CO (stereo not drawn) please.
Given back: False

Asked: Record lookup: outcome of this test for CCCCC(CC)COC(=O)c1ccc(N(C)C)cc1 (stereo not drawn) ?
Given back: False

====

target: X-box-binding protein 1 (Homo sapiens) (UniProt P17861); test: ATG_Xbp1_CIS: Attagene CIS-FACTORIAL HepG2 Assay for human X-box Binding Protein 1 (XBP1) (AID 2282972); conditions: HepG2 XBP1 cis-element reporter, Attagene multiplex; actives raise or lower the signal
Sequence (P17861 whole entry, looked up): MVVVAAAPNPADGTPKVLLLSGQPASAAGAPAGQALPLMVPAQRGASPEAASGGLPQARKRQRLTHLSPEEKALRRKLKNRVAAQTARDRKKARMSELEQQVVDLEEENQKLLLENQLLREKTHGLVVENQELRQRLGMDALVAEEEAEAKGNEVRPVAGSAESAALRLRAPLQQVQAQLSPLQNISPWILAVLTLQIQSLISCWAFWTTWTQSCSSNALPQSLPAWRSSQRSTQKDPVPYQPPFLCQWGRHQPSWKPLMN
Activity calls are given as the source filed them. How the source made its calls: active means hit-call score of the fitted dose curve at least 0.9, where 1 is the maximum; inactive means score below 0.9.
Entry note: the call must match one of active, inactive

Asked: Field: outcome | Entry: `C=CC(=O)OCC(F)(F)C(F)(F)C(F)(F)C(F)(F)C(F)(F)C(F)(F)C(F)(F)C(F)F`
Given back: inactive

Asked: Tell me the assay call for `O=C(O)C(F)(F)OC(F)(F)C(F)(F)OC(F)(F)C(F)(F)OC(F)(F)F` please.
Given back: inactive

Asked: What classification did `O=C(O)C(F)(F)C(F)(F)C(F)(F)OC(F)(C(F)(F)F)C(F)(F)F` end up with in this test?
Given back: inactive

Asked: Look up the recorded call for `Nc1c(Br)cc([N+](=O)[O-])cc1Br` in this test.
Given back: inactive

Asked: Hi team, can someone confirm the assay call for `Cc1ccc(S(=O)(=O)C(I)I)cc1` ?
Given back: active

Asked: Query: recorded result category for CCCCC(CC)COC(=O)c1ccc(N(C)C)cc1 (stereo unspecified) in this test
Given back: inactive
